Target: Estrogen receptor beta (Homo sapiens)
Assay: qHTS assay to identify small molecule antagonists of the estrogen receptor beta (ER-beta) signaling pathway (AID 1259378)
Conditions: ER-beta-UAS-bla HEK293T, beta-lactamase FRET ratio, 16 h; series mostly up to 92.4 µM
Records with an inconclusive call do not appear. Active and inactive are the calls of the source. The call rests on the fitted dose curve; in most records, active means well fitted inhibition curve with a large enough effect in the signal ratio in the repeat runs (not every such curve was filed as active); inconclusive means weak or mixed curves, or effect the other way; inactive means no such curve, though single readings can be large or run the other way; the % refers to the signal ratio.
Possible outcomes: y (active), n (inactive)

1. CC(C)(C)c1cc(/C=C2\SC(=N)NC2=O)cc(C(C)(C)C)c1O
y
2. Cc1ccc(O)cn1
n
3. Clc1ccc(C(Cn2ccnc2)OCc2ccsc2Cl)c(Cl)c1 (stereo not drawn)
y
4. CCC(=O)OCCc1ccccc1
n
5. CC(C)(C)c1n[nH]c(=O)n(N)c1=O
n
6. O=CC1CC1
n
7. O=C1OC(=O)c2ccc3c4c(ccc1c24)C(=O)OC3=O
n
8. Brc1ccccn1
n
9. Cc1c(C)n(Cc2ccccc2)c2ccc(C(=O)OCCN(C)C)cc12
y
10. NC(=O)C(=O)N/N=C/c1ccc([N+](=O)[O-])o1
n
11. C=CC(C)(CCC=C(C)C)OC(=O)/C=C/c1ccccc1 (stereo not drawn)
n
12. CC(C)=C1CC[C@@H](C)CC1=O
n
13. CC1=CP(=O)(c2ccccc2)CC1 (stereo not drawn)
n
14. CC1CCCCC1
n
15. CCOC(=O)COc1ccc(C)cc1
n
16. CCCC(=O)OCC(COC(=O)CCC)OC(=O)CCC
n
17. CCOB(OCC)OCC
n
18. Cc1occc1SSc1ccoc1C
n
19. CC1CNCC(C)O1 (stereo not drawn)
n
20. CNC(=O)c1cc(Oc2ccc(NC(=O)Nc3ccc(Cl)c(C(F)(F)F)c3)cc2)ccn1
y
21. C/C=C/CO
n
22. CCC(C)(C)c1cc(O)c(C(C)(C)CC)cc1O
y
23. CCN(CC)CCOC(=O)C1(C2CCCCC2)CCCCC1
n
24. C=C(c1ccc(C(=O)O)cc1)c1cc2c(cc1C)C(C)(C)CCC2(C)C
y
25. COc1cc(C(=O)NS(=O)(=O)c2ccccc2C)ccc1Cc1cn(C)c2ccc(NC(=O)OC3CCCC3)cc12
y
26. CCN=c1cc2oc3cc(NCC)c(C)cc3c(-c3ccccc3C(=O)OCC)c-2cc1C
y
27. CCc1c(Br)c(Br)c(Br)c(Br)c1Br
n
28. C/C=C/c1ccc(OC)c(OC)c1
n

This collection of values is drawn from PubChem BioAssay (Tox21).
